# TARGET DESC: mPAD4 (Mus musculus, UniProt Q9Z183)
# Sequence (Q9Z183 whole entry): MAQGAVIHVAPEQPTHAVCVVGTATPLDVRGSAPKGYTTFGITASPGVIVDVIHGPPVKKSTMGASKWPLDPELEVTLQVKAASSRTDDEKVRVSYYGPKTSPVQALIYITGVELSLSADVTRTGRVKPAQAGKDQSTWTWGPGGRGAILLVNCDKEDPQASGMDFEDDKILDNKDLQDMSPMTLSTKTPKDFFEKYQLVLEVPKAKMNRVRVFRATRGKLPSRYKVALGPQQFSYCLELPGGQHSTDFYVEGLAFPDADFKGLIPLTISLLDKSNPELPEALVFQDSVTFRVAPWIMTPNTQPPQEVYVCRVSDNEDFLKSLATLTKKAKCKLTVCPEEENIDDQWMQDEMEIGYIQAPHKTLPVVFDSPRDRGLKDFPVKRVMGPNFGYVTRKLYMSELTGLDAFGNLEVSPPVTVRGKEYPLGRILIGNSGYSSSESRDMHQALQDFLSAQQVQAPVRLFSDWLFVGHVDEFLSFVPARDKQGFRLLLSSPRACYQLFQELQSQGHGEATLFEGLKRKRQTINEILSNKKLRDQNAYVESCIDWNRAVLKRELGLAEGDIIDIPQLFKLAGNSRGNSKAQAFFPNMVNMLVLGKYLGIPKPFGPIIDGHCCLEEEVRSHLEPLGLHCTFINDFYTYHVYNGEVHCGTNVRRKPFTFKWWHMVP
# EXPERIMENT: mPAD4 RFMS PAD4 inhibition assay;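 further: grade E means pIC50 at most 4 and F means pIC50 4.0 to 5.0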
# Assay type: biochemical
# CONDITION DESCRIPTION: mPAD4, RFMS readout; pIC50=−log(IC50); read-out: mPAD4 RFMS pIC50 (converted)
PARAMETER MEASURED: IC50

Worked cases, IC50 given:
{"COMPOUND": "Cn1c(-c2cc3cccnc3n2CC2CC2)nc2cc(C(=O)N3C[C@@H](N)C[C@H](F)C3)cc(OC(F)F)c21", "IC50": "< 1000 nM"}
{"COMPOUND": "CCn1c(-c2nc3cc(C(=O)N4C[C@H](N)C[C@@H](F)C4)cc(OC)c3n2C[C@H]2C[C@@](C)(OC)C2)cc2ccc(OC)nc21", "IC50": "< 1000 nM"}
{"COMPOUND": "COc1cc(C(=O)N2CC3CCC2C3N)cc2nc(-c3cc4cccnc4n3CC3CC3)n(C)c12 (stereo not drawn)", "IC50": "< 1000 nM"}
{"COMPOUND": "COc1cc(C(=O)N2C[C@H]3CC[C@@H]2[C@@H]3N)cc2nc(-c3cc4cccnc4n3CC3CC3)n(CC[S+](C)[O-])c12 (stereo partly drawn)", "IC50": "< 1000 nM"}

Task: What value of IC50 has been reported for the following compound? CCn1c(-c2nc3cc(C(=O)N4C[C@H]5CC[C@@H]4[C@@H]5N)cc(OC)c3n2CC2CCOCC2)cc2cccnc21
Result: 1000 to 10000 nM

Task: What value of IC50 has been reported for the following compound? COc1ccc2cc(-c3nc4cc(C(=O)N5CCC[C@@H](N)C5)ccc4n3C)n(CC3CC3)c2n1
Result: < 1000 nM

Task: What value of IC50 has been reported for the following compound? COc1cc(C(=O)N2CCC[C@@H](N)C2)cc2nc(-c3cc4cnc(C)nc4n3CC3CC3)n(C)c12
Result: 1000 to 10000 nM

Task: What value of IC50 has been reported for the following compound? CCn1c(-c2nc3cc(C(=O)N4C[C@H]5CC[C@@H]4[C@@H]5N)cc(OC)c3n2[C@H]2C[C@@H](OC)C2)cc2cccnc21
Result: 1000 to 10000 nM

Task: What value of IC50 has been reported for the following compound? COc1ccc2cc(-c3nc4cc(C(=O)N5C[C@H](N)C[C@@H](F)C5)cc(OC(F)F)c4n3C)n(CC3CC3)c2n1
Result: < 1000 nM
